The reported measurements were obtained from patent US20250326753A1.

Molecular target: RIPK5 (Homo sapiens)
Construct: purchased Reaction Biology Europe GmbH
Sequence (Q6XUX3 whole entry): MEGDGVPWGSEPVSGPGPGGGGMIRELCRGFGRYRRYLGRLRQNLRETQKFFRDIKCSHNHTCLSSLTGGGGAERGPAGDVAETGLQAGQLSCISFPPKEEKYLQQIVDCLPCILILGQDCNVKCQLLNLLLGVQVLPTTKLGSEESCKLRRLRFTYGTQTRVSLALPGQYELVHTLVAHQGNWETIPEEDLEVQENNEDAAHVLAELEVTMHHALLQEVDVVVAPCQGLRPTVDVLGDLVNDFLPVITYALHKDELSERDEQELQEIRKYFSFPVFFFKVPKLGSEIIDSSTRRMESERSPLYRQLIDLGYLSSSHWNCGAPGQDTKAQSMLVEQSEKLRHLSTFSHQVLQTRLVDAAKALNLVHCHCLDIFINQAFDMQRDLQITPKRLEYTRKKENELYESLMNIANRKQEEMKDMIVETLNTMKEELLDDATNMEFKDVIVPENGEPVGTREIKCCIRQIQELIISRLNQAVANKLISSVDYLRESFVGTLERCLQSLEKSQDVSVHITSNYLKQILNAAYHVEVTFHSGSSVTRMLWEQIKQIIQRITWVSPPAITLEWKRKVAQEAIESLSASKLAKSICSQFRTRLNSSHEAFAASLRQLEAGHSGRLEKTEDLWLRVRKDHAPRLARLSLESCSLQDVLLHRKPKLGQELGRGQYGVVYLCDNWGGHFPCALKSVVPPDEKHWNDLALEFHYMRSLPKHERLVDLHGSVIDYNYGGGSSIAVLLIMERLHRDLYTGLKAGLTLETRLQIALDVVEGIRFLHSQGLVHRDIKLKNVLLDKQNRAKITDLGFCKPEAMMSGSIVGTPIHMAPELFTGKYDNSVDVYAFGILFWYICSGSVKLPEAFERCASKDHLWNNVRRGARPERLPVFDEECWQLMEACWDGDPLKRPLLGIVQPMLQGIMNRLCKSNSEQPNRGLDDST
Assay: PanQinase kinase panel: RIPK5
Assay type: biochemical
Conditions: read-out: INHIBITORY EFFECT @ 1 uM: RIPK5
Each entry below carries its reported inhibition at 1 µM.

Past entries and their recorded results:
## Input Which measured inhibition at 1 µM value corresponds to O=C(c1ccc(Oc2ccccc2)cc1Cl)c1c[nH]c2ncnc(N[C@@H]3CC[C@@H](CO)OC3)c12 ?
## Output 70 to 89%

## Input Continue with C=CC(=O)N1CCC([C@@H]2CCNc3c(C(N)=O)c(-c4ccc(Oc5ccccc5)cc4)nn32)CC1
## Output < 50%

## Input Continue with COc1ccc(F)cc1C(=O)NCc1ccc(-c2nn([C@@H](C)C(F)(F)F)c(N)c2C(N)=O)cc1
## Output < 50%

More entries:
## Input Which measured inhibition at 1 µM value corresponds to Cc1cccnc1[C@H]1CCC[C@@H](c2ncccc2C)N1CCN1CCN(C(=O)c2ccc(-c3cc4c(-c5cccc(NC(=O)c6ccccc6)c5C)ncnc4[nH]3)cc2)CC1 ?
## Output < 50%

====

Target: CXCR4 (Homo sapiens)
Sequence (P61073 whole entry): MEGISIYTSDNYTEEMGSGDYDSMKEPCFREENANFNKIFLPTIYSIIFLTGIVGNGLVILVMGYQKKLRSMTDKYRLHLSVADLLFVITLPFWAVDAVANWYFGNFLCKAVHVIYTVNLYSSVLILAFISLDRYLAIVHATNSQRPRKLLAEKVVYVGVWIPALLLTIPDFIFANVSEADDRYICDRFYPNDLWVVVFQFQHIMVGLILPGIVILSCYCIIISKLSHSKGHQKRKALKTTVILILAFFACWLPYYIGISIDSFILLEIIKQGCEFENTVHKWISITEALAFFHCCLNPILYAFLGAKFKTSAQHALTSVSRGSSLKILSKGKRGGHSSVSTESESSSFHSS
Experiment: Intracellular CXCL-12-induced calcium mobilization assay (FLIPR), U87.CXCR4 cells
Type: cell-based
Set-up: expressed in transfected cells; host or cells: U87 (U87.CXCR4)
Settings: CXCL-12 25-50 ng/ml, read-out: IC50 CXCL-12 Ca2+ flux U87.CXCR4+
Each entry below carries its reported IC50.

## Input Which measured IC50 value corresponds to Cc1cccnc1[C@H]1CCC[C@@H](c2ncccc2C)N1CCCCN1CCN(C(=O)c2ccc(-c3cc4c(-c5cccc(NC(=O)c6ccccc6)c5C)ncnc4[nH]3)cc2)CC1 [Compound I-31] ?
## Output 1 to 100 nM

More entries:
## Input Which measured IC50 value corresponds to Cc1cccnc1[C@H]1CC(Cn2cc(-c3ccc(Oc4ccccc4)cc3)c3c(N)ncnc32)C[C@@H](c2ncccc2C)N1CCCCN (some centres unmarked) [Compound I-61] ?
## Output > 2500 nM

## Input Continue with Cc1cccnc1[C@H]1CCC[C@@H](c2ncccc2C)N1CCN1CCN(C(=O)c2ccc(-c3cc4c(-c5cccc(NC(=O)c6cccc(C(C)C)c6)c5C)ncnc4[nH]3)cc2)CC1 [Compound I-33]
## Output 100 to 1000 nM

## Input Continue with Cc1cccnc1[C@H]1CC(C(=O)OC[C@@H]2CC[C@@H](Nc3ncnc4[nH]cc(C(=O)c5ccc(Oc6ccccc6)cc5Cl)c34)CO2)C[C@@H](c2ncccc2C)N1CCCCN (some centres unmarked) [Compound I-22]
## Output 100 to 1000 nM

## Input Continue with Cc1cccnc1[C@H]1CCC[C@@H](c2ncccc2C)N1CCCCOC(=O)[C@@H]1CC[C@@H](Nc2ncnc3[nH]cc(C(=O)c4ccc(Oc5ccccc5)cc4Cl)c23)CO1 [Compound I-14]
## Output > 2500 nM

## Input Continue with Cc1cccnc1[C@H]1CCC[C@@H](c2ncccc2C)N1CCNC[C@@H]1CC[C@@H](Nc2ncnc3[nH]cc(C(=O)c4ccc(Oc5ccccc5)cc4Cl)c23)CO1 [Compound I-15]
## Output > 2500 nM

## Input Continue with Cc1cccnc1[C@H]1CCC[C@@H](c2ncccc2C)N1CCNC1CN(C(=O)c2ccc(-c3cc4c(-c5cccc(NC(=O)c6ccc(C(C)(C)C)cc6)c5C)ncnc4[nH]3)cc2)C1 [Compound I-8]
## Output 100 to 1000 nM

====

Molecular target: RET (Homo sapiens, UniProt P07949)
Construct: purchased Reaction Biology Europe GmbH
Sequence (P07949 29-1114): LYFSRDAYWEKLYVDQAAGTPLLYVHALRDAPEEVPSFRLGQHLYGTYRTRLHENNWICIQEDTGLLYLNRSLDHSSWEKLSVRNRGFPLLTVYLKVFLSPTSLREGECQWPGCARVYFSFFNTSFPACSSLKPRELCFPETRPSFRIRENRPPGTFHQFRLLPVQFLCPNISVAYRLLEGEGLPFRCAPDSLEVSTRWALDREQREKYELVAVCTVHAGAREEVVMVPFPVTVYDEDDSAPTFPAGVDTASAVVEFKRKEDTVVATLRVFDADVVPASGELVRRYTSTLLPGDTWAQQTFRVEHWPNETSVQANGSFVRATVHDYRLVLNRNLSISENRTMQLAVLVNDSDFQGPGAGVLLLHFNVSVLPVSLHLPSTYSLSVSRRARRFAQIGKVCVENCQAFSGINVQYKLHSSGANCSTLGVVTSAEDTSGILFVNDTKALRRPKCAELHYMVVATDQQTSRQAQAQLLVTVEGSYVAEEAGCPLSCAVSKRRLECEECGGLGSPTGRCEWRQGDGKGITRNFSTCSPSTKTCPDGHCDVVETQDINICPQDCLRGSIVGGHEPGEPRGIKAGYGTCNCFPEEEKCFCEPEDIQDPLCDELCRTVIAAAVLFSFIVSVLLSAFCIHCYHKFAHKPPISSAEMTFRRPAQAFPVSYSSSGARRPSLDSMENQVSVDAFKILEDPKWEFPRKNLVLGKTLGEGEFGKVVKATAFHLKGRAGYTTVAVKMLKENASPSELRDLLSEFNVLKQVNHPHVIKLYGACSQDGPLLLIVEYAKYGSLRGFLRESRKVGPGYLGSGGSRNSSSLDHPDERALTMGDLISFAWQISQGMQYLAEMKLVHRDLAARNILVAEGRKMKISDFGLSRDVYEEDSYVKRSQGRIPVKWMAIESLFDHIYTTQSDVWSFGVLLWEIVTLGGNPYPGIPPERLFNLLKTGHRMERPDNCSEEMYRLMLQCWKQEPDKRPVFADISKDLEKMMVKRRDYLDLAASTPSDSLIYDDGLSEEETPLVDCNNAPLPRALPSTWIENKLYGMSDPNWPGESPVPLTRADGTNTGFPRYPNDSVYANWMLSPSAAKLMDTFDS
Test: PanQinase kinase panel: RET
Type: biochemical
Details: read-out: INHIBITORY EFFECT @ 1 uM: RET
Each entry below carries its reported inhibition at 1 µM.

Past entries and their recorded results:
## Input Which measured inhibition at 1 µM value corresponds to Cc1cccnc1[C@H]1CCC[C@@H](c2ncccc2C)N1CCN1CCN(C(=O)c2ccc(-c3cc4c(-c5cccc(NC(=O)c6ccccc6)c5C)ncnc4[nH]3)cc2)CC1 ?
## Output < 50%

## Input Continue with O=C(c1ccc(Oc2ccccc2)cc1Cl)c1c[nH]c2ncnc(N[C@@H]3CC[C@@H](CO)OC3)c12
## Output 90 to 100%

## Input Continue with COc1ccc(F)cc1C(=O)NCc1ccc(-c2nn([C@@H](C)C(F)(F)F)c(N)c2C(N)=O)cc1
## Output 50 to 69%

Could you now look at the following molecule, please?
## Input Which measured inhibition at 1 µM value corresponds to C=CC(=O)N1CCC([C@@H]2CCNc3c(C(N)=O)c(-c4ccc(Oc5ccccc5)cc4)nn32)CC1 ?
## Output < 50%

====

Each entry below carries its reported inhibition at 1 µM.
Target: MEKK3 (Homo sapiens, UniProt Q99759)
Construct: purchased Reaction Biology Europe GmbH
Sequence (Q99759 whole entry): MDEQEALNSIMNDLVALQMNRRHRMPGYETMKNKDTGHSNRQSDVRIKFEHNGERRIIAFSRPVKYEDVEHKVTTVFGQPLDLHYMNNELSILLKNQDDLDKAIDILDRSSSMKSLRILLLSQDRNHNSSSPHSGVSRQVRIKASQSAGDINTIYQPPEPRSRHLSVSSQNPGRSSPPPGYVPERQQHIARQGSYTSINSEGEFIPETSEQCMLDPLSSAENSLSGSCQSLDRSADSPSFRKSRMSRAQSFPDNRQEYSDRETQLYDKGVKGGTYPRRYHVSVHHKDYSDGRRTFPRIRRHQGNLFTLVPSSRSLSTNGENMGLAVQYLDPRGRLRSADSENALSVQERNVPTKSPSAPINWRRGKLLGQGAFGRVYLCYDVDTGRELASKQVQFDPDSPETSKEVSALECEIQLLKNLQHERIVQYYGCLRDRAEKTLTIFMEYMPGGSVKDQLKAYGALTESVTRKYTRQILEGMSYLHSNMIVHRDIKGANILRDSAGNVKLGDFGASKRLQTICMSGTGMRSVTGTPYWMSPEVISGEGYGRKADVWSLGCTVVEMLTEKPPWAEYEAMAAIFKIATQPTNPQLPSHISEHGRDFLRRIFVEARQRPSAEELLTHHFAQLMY
Assay: PanQinase kinase panel: MEKK3
Type: biochemical
Conditions: read-out: INHIBITORY EFFECT @ 1 uM: MEKK3

## Input // lookup inhibition at 1 µM | system=MEKK3 (Homo sapiens, UniProt Q99759) | key= COc1ccc(F)cc1C(=O)NCc1ccc(-c2nn([C@@H](C)C(F)(F)F)c(N)c2C(N)=O)cc1
## Output < 50%

## Input Continue with C=CC(=O)N1CCC([C@@H]2CCNc3c(C(N)=O)c(-c4ccc(Oc5ccccc5)cc4)nn32)CC1
## Output < 50%

## Input Continue with O=C(c1ccc(Oc2ccccc2)cc1Cl)c1c[nH]c2ncnc(N[C@@H]3CC[C@@H](CO)OC3)c12
## Output 50 to 69%

Could you now look at the following compound, please?
## Input // lookup inhibition at 1 µM | system=MEKK3 (Homo sapiens, UniProt Q99759) | key= Cc1cccnc1[C@H]1CCC[C@@H](c2ncccc2C)N1CCN1CCN(C(=O)c2ccc(-c3cc4c(-c5cccc(NC(=O)c6ccccc6)c5C)ncnc4[nH]3)cc2)CC1
## Output < 50%

====

Target: BTK (Bruton tyrosine kinase) (Homo sapiens)
Construct: GST or His (the text leaves open which); purchased Reaction Biology Europe GmbH Lot 012,11; host or cells: Sf9 insect cells or E. coli (not resolved)
Sequence (Q06187 whole entry): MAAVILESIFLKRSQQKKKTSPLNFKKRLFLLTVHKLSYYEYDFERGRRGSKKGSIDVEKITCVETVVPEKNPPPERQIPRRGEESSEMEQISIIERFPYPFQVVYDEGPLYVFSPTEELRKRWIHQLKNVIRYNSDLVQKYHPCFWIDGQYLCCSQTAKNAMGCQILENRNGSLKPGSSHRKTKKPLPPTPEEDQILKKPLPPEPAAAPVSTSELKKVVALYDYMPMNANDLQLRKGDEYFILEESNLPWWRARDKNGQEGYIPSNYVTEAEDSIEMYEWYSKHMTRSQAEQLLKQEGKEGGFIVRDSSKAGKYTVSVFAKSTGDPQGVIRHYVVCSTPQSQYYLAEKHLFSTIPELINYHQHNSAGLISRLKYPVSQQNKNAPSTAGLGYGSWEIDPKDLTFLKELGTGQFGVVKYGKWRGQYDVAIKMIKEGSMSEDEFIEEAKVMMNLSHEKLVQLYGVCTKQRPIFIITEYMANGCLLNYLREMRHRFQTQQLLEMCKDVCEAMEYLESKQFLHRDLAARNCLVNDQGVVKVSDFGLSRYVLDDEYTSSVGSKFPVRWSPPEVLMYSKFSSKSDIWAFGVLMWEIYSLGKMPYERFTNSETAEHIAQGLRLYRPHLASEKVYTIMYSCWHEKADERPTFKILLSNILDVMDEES
Test: BTK screening assay (33PanQinase Activity Assay, radiometric)
Type: biochemical
Details: Inhibition of BTK, radiometric 33PanQinase Activity Assay, 3 μM ATP, 10 concentrations in singlicate, top 10 μM; read-out: 33PanQinase ® Radiometric IC50
Measured attribute: IC50

Past entries and their recorded results:
## Input Which measured IC50 value corresponds to Cc1cccnc1[C@H]1CCC[C@@H](c2ncccc2C)N1CCN1CCN(C(=O)c2ccc(-c3cc4c(-c5cccc(NC(=O)c6ccc(F)cc6)c5C)ncnc4[nH]3)cc2)CC1 [Compound I-67] ?
## Output 1 to 100 nM

## Input Continue with Cc1cc(-c2ncnc3[nH]c(C(=O)NCCCCN4[C@@H](c5ncccc5C)CCC[C@H]4c4ncccc4C)cc23)ccc1CNC(=O)c1cc(F)cc(F)c1 [Compound I-86]
## Output 100 to 1000 nM

## Input Continue with Cc1cccnc1[C@H]1CCC[C@@H](c2ncccc2C)N1CCNC1CN(C(=O)c2cc3c(-c4cccc(NC(=O)c5ccc(F)cc5)c4C)ncnc3[nH]2)C1 [Compound I-90]
## Output > 2500 nM

## Input Continue with Cc1cc(-c2ncnc3[nH]c(C(=O)NCCN4[C@@H](c5ncccc5C)CCC[C@H]4c4ncccc4C)cc23)ccc1CNC(=O)c1ccc(C(C)(C)C)cc1 [Compound I-3]
## Output 1 to 100 nM

## Input Continue with Cc1cccnc1[C@H]1CCC[C@@H](c2ncccc2C)N1CCN1CCN(C(=O)[C@]23C[C@](c4cc5c(-c6cccc(NC(=O)c7ccccc7)c6C)ncnc5[nH]4)(C2)C3)CC1 [Compound I-71]
## Output 1000 to 2500 nM

Could you now look at the following compound, please?
## Input Which measured IC50 value corresponds to Cc1cc(-c2ccnc(Nc3cnn(CCN4CCCCC4c4ncccc4C)c3)n2)ccc1CNC(=O)N1CC(OC(C)C)C1 (stereo not drawn) [Compound I-66] ?
## Output 1 to 100 nM

====

Target: BTK (Bruton tyrosine kinase) (Homo sapiens)
Construct: GST or His (the text leaves open which); purchased Reaction Biology Europe GmbH Lot 012,11; host or cells: Sf9 insect cells or E. coli (not resolved)
Test: BTK screening assay (33PanQinase Activity Assay, radiometric)
Format: biochemical
Conditions: Inhibition of BTK, radiometric 33PanQinase Activity Assay, 3 μM ATP, 10 concentrations in singlicate, top 10 μM; read-out: 33PanQinase ® Radiometric IC50
Measured attribute: IC50

## Input Which measured IC50 value corresponds to Cc1cc(-c2ncnc3[nH]c(S(=O)(=O)NCCCCN4[C@@H](c5ncccc5C)CCC[C@H]4c4ncccc4C)cc23)ccc1CNC(=O)c1ccc(C(C)(C)C)cc1 [Compound I-28] ?
## Output 1000 to 2500 nM

====

Each entry below carries its reported inhibition at 1 µM.
Molecular target: KIT (Homo sapiens, UniProt P10721)
Construct: purchased Reaction Biology Europe GmbH
Sequence (P10721 26-976): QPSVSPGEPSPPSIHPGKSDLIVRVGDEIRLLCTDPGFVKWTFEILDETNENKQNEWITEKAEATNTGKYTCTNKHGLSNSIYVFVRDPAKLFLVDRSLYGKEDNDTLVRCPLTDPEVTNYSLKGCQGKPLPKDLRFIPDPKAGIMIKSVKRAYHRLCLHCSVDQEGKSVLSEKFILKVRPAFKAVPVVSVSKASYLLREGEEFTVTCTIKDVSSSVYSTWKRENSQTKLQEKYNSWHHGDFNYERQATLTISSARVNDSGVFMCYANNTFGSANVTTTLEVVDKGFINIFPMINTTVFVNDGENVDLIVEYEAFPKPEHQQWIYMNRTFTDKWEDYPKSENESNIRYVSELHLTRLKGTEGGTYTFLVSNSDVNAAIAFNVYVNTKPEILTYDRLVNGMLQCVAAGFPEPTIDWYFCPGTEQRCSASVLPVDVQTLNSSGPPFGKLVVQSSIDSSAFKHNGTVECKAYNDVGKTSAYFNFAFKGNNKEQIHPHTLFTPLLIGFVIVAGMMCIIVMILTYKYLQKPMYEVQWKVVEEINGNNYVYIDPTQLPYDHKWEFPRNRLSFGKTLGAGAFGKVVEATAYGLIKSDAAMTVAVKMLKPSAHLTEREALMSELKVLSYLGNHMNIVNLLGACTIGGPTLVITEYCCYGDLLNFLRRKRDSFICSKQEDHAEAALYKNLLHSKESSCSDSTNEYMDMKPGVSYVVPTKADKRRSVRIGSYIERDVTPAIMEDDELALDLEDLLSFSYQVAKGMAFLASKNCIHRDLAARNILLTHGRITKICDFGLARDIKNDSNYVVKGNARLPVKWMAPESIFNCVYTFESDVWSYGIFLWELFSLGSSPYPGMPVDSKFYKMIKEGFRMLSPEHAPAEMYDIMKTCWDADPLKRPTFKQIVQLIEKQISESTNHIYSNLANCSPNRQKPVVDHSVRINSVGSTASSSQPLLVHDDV
Test: PanQinase kinase panel: KIT
Type: biochemical
Settings: read-out: INHIBITORY EFFECT @ 1 uM: KIT

## Input Which measured inhibition at 1 µM value corresponds to COc1ccc(F)cc1C(=O)NCc1ccc(-c2nn([C@@H](C)C(F)(F)F)c(N)c2C(N)=O)cc1 ?
## Output < 50%

## Input Continue with Cc1cccnc1[C@H]1CCC[C@@H](c2ncccc2C)N1CCN1CCN(C(=O)c2ccc(-c3cc4c(-c5cccc(NC(=O)c6ccccc6)c5C)ncnc4[nH]3)cc2)CC1
## Output < 50%

## Input Continue with C=CC(=O)N1CCC([C@@H]2CCNc3c(C(N)=O)c(-c4ccc(Oc5ccccc5)cc4)nn32)CC1
## Output < 50%

## Input Continue with O=C(c1ccc(Oc2ccccc2)cc1Cl)c1c[nH]c2ncnc(N[C@@H]3CC[C@@H](CO)OC3)c12
## Output 90 to 100%
